# System: nervus ischiadicus
# Run Description: local analgesic effect (Truant d'Amato's method)
# Format: in vivo
# Test Context: in a conc. of 0.5%
# Protocol: The tests were carried out according to Truant d'Amato's method. 0.2 ml of test material was injected around the nervus ischiadicus in the middle of femur with a needle of 1 cm length. The criterion of analgesic effect was the lack of the motoric control of foot muscles. The duration of effect was registered and the 50 percentile effective concentration (EC50) was calculated on the basis of the dose-effect curve. Lidocain was used as comparative material. […]
Threshold check on Duration of effect: at or above 90 min gives y, strictly below gives n.

- Compound: "CC(C)NCC(O)CO/N=C1\\CCCCCC\\C1=C/c1ccccc1 (racemic)"
  Target System: "nervus ischiadicus"
  Label: "y"
- Compound: "CC(C)NCC(O)CO/N=C1\\CCCCC1Cc1ccc(Cl)cc1 (racemic)"
  Target System: "nervus ischiadicus"
  Label: "y"
- Compound: "CCN(CC)CC(=O)Nc1c(C)cccc1C [Lidocain, reference compound]"
  Target System: "nervus ischiadicus"
  Label: "n"
- Compound: "CCCNCC(O)CO/N=C1\\CCCC\\C1=C/c1ccc(Cl)cc1 (centres unmarked)"
  Target System: "nervus ischiadicus"
  Label: "n"
- Compound: "CCCN(CCC)CC(O)CO/N=C1\\CCCCC\\C1=C/c1ccc(OC)cc1 (racemic)"
  Target System: "nervus ischiadicus"
  Label: "y"
- Compound: "CC(C)NCC(O)CO/N=C1\\CCCC\\C1=C/c1ccc(Cl)cc1 (centres unmarked)"
  Target System: "nervus ischiadicus"
  Label: "n"

Let's switch to this compound now.
Asked: Could you please find out whether COc1ccc(/C=C2\CCCC\C2=N/OCC(O)CNC2CC2)cc1 (racemic) has Duration of effect that meets 90 min or exceeds it?
Given back: n
